Data provenance is patent US4587052A.

assay_text: in vivo
cond: mouse, ip, Table 2, i.p., dd-strain male mice, 3 weeks, read-out: LD50

compound | unit | LD50 at 504 h
Cc1ccc2c(c1OCCC#N)NC(O)C1CC(/C=C/C(N)=O)=CN1C2=O (stereo not shown) [(CH2)2 CN] | mg/kg | 118
Cc1ccc2c(c1OCCCC#N)NC(O)C1CC(/C=C/C(N)=O)=CN1C2=O (stereo not shown) [(CH2)3 CN] | mg/kg | 110
COC1Nc2c(ccc(C)c2OCCc2ccc(C(=O)O)cc2)C(=O)N2C=C(/C=C/C(N)=O)CC12 (stereo not shown) | mg/kg | 128
CCC(CCCN)Oc1c(C)ccc2c1NC(OC)C1CC(/C=C/C(N)=O)=CN1C2=O (stereo not shown) | mg/kg | 115

----------
Test system: mouse ascitic leukemia p388
assay_text: Antitumor activity test (mouse ascitic leukemia p388 i.p. in BDF1-strain male mice)
Type: in vivo
cond: ip, 30 mg/kg
Method: 10^6 Cells of mouse ascitic leukemia p388 were administered intraperitoneally into each member of the groups of 8 to 12 BDF1 -strain male mice, each 18 to 20 g in body weight. […] Days elapsed until death of the test animal were counted for each mouse. […] The prolongation of survival time, indicative of the effectiveness of a test compound, was calculated by the following equation. […] The therapeutic index was calculated by the following equation. […]

molecule | system_name | Prolongation of survival time, %
Cc1ccc2c(c1OC(=O)CCC(=O)O)NC(O)C1CC(/C=C/C(N)=O)=CN1C2=O (stereo not drawn) | mouse ascitic leukemia p388 | 160%
Cc1ccc2c(c1OC(=O)COCC(=O)O)NC(O)C1CC(/C=C/C(N)=O)=CN1C2=O (stereo not drawn) | mouse ascitic leukemia p388 | 181.2%
Cc1ccc2c(c1OC(=O)CCCCC(=O)O)NC(O)C1CC(/C=C/C(N)=O)=CN1C2=O (stereo not drawn) | mouse ascitic leukemia p388 | 172.5%
COC1Nc2c(ccc(C)c2OC(=O)c2cccc([N+](=O)[O-])c2C(=O)O)C(=O)N2C=C(C=CC(N)=O)CC12 (stereo not drawn) | mouse ascitic leukemia p388 | 152%
COC1Nc2c(ccc(C)c2OC(=O)c2ccccc2C(=O)O)C(=O)N2C=C(C=CC(N)=O)CC12 (stereo not drawn) | mouse ascitic leukemia p388 | 130.2%
Cc1ccc2c(c1OC(=O)CCCC(=O)O)NC(O)C1CC(/C=C/C(N)=O)=CN1C2=O (stereo not drawn) | mouse ascitic leukemia p388 | 185%

----------
assay_text: in vivo
cond: mouse, ip
Assign labels as follows, please: 1 for LD50 at 504 h below 100 mg/kg; -1 for LD50 at 504 h equal to or exceeding 100 mg/kg.

compound | group
Cc1ccc2c(c1OCc1ccccc1C#N)NC(O)C1CC(/C=C/C(N)=O)=CN1C2=O (stereo not drawn) | -1
COC1Nc2c(ccc(C)c2OCCC(=O)O)C(=O)N2C=C(/C=C/C(N)=O)CC12 (stereo not drawn) [CH2 CH2 COOK] | -1
Cc1ccc2c(c1O)NC(O)C1CC(/C=C/C(N)=O)=CN1C2=O (stereo not drawn) [PBA, reference compound] | 1
Cc1ccc2c(c1OC(=O)CCC(=O)O)NC(O)C1CC(/C=C/C(N)=O)=CN1C2=O (stereo not drawn) [COCH2 CH2COOK] | -1

----------
assay_text: in vivo
cond: mouse, ip, Table 1, i.p., dd-strain male mice, 3 weeks, read-out: LD50
Assign labels as follows, please: yes (1) for LD50 at 504 h below 100 mg/kg; no (0) for LD50 at 504 h equal to or exceeding 100 mg/kg.

compound | group
COC1Nc2c(ccc(C)c2OC(=O)c2cccc([N+](=O)[O-])c2C(=O)O)C(=O)N2C=C(C=CC(N)=O)CC12 (stereo not shown) | yes (1)
COC1Nc2c(ccc(C)c2OC(=O)c2ccccc2C(=O)O)C(=O)N2C=C(C=CC(N)=O)CC12 (stereo not shown) | yes (1)
CC(=O)SC(CC(=O)Oc1c(C)ccc2c1NC(O)C1CC(/C=C/C(N)=O)=CN1C2=O)C(=O)O (stereo not shown) | no (0)
Cc1ccc2c(c1OC(=O)CCCC(=O)O)NC(O)C1CC(/C=C/C(N)=O)=CN1C2=O (stereo not shown) | no (0)
Cc1ccc2c(c1OC(=O)CCCCC(=O)O)NC(O)C1CC(/C=C/C(N)=O)=CN1C2=O (stereo not shown) | no (0)
CCCCCCCCCC(CC(=O)Oc1c(C)ccc2c1NC(O)C1CC(C=CC(N)=O)=CN1C2=O)C(=O)O (stereo not shown) [Table 1 entry 4 (R^1 not printed)] | no (0)
Cc1ccc2c(c1OC(=O)COCC(=O)O)NC(O)C1CC(/C=C/C(N)=O)=CN1C2=O (stereo not shown) | no (0)
